Provenance of the data: patent US11242349B2

Experimental Target: recombinant human mGlu4 expressed in HEK293 cells (Homo sapiens (Human))
Sequence (Q14833 33-912): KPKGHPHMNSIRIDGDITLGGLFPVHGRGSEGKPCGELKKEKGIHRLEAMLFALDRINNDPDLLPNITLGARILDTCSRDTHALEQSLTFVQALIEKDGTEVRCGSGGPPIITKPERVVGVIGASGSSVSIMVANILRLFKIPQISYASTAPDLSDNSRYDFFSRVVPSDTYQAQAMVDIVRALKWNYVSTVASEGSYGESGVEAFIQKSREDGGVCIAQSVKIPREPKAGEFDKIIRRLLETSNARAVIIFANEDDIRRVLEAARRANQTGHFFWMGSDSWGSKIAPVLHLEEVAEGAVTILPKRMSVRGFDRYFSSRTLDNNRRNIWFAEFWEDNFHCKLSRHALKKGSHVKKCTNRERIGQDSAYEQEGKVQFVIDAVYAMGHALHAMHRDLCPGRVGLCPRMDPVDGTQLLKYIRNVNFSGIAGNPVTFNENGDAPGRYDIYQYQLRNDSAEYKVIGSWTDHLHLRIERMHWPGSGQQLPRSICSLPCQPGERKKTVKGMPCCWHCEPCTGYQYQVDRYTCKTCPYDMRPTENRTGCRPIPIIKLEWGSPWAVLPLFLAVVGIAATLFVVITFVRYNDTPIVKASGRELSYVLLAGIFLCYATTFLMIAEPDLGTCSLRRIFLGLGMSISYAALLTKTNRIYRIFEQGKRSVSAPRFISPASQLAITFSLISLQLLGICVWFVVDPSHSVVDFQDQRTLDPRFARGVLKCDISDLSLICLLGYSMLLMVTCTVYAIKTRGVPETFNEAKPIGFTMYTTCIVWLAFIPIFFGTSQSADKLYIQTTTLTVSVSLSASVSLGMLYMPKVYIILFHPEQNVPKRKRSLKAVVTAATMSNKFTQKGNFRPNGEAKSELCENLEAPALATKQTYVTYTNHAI
Method Description: Ca2+ mobilization in vitro assay, mGlu4 PAM
Type: cell-based
Condition: HEK293 cells, human mGlu4, with EC20 of L-AP4
Measurement Kind: EC50 (nM)

{"columns": ["Smiles Input", "Recorded Number"],
 "data": [
  ["CCn1ncc2c1CCC[C@]21CC(=O)N(c2c(F)cc(C#Cc3ccccc3)cc2F)C(=O)N1C", 85],
  ["CCn1cc2c(n1)CCC[C@]21CC(=O)N(c2c(F)cc(C#Cc3ccccc3)cc2F)C(=O)N1C", 77]
]}
